Target: T1, recombinant human CD73 protein (human, UniProt P21589 27-547, limits assumed)
T1 construct: Bought recombinant protein; the assays only say recombinant human CD73; also called rhCD73; recombinant hCD73 protein
T1 sequence (looked up): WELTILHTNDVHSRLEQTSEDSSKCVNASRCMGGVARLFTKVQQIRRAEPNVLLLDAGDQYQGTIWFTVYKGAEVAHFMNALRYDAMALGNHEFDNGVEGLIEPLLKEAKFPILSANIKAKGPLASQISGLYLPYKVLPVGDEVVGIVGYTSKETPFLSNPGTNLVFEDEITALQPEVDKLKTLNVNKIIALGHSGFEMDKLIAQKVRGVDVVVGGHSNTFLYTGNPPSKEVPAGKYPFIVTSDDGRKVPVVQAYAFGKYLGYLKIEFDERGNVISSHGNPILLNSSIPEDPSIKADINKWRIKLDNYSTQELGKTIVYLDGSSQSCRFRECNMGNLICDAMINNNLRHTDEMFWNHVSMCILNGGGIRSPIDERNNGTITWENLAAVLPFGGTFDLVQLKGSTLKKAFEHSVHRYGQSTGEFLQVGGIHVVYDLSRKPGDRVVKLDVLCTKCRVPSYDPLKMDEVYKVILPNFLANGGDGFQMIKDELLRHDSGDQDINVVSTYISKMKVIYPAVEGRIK
Experiment: ELISA, recombinant human CD73
Recorded measurements of EC50, one per entry
Express it in µg/mL; write the number only.

[[record]]
binder = "humanized CQ137 monoclonal antibody (137-4) (antibody, V domains shown) VH: QVQLVQSGAEVKKPGSSVKVSCKASGYSFTGYYIHWVRQAPGQGLEWMGRINPYNGATTYNQNFKDRVTITVDKSTSTAYMELSSLRSEDTAVYYCARFHYGAVDYWGQGTLVTVSS VL: DIQMTQSPSSLSASVGDRVTITCKASQDINTYLTWYQQKPGKAPKTLIYRANILVDGVPSRFSGSGSGTDFTLTISSLQPEDFATYYCLQYEEFPLTFGGGTKVEIKR"
experimentalreadout = "EC50"
uom = "µg/mL"
assayvalue = 0.262

[[record]]
binder = "humanized CQ137 monoclonal antibody (137-5) (antibody, V domains shown) VH: QVQLVQSGAEVKKPGSSVKVSCKASGYSFTGYYIHWVRQAPGQGLEWMGRINPYNGATTYNQNFKDRVTITVDKSTSTAYMELSSLRSEDTAVYYCARFHYGAADYWGQGTLVTVSS VL: DIQMTQSPSSLSASVGDRVTITCKASQDINTYLTWYQQKPGKAPKTLIYRANILVDGVPSRFSGSGSGTDFTLTISSLQPEDFATYYCLQYNEFPLTFGGGTKVEIKR"
experimentalreadout = "EC50"
uom = "µg/mL"
assayvalue = 0.387


Kindly review the next binder as well.
Give its EC50 value. Item: humanized CQ137 monoclonal antibody (137-7) (antibody, V domains shown) VH: QVQLVQSGAEVKKPGSSVKVSCKASGYSFTGYYIHWVRQAPGQGLEWMGRINPYNGATTYNQNFKDRVTITVDKSTSTAYMELSSLRSEDTAVYYCARFHYGAPNYWGQGTLVTVSS VL: DIQMTQSPSSLSASVGDRVTITCKASQDINTYLTWYQQKPGKAPKTLIYRANILVDGVPSRFSGSGSGTDFTLTISSLQPEDFATYYCLQYDDFPLTFGGGTKVEIKR
0.5
